measured-target: NELF-A full-length;NELF-B;NELF-D (called NELF-C) (Homo sapiens;Homo sapiens;Homo sapiens, UniProt Q9H3P2;Q8WX92;Q8IXH7-4 1-528;49-628;1-581, ||)
Sequence (Q9H3P2 whole entry, chain 1 of 3): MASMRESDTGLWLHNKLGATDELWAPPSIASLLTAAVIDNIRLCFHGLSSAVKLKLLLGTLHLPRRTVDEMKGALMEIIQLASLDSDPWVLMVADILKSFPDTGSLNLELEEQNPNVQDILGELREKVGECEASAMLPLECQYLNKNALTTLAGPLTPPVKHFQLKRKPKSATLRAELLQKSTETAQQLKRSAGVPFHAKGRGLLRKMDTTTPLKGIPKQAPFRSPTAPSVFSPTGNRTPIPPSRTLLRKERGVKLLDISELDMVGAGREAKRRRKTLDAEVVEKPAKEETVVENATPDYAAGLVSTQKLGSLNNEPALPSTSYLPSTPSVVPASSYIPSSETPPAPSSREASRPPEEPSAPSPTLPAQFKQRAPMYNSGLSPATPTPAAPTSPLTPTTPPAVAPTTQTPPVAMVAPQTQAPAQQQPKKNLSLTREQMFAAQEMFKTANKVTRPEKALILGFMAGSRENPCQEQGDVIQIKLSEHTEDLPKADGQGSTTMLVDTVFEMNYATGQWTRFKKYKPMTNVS
Sequence (Q8WX92 whole entry, chain 2 of 3): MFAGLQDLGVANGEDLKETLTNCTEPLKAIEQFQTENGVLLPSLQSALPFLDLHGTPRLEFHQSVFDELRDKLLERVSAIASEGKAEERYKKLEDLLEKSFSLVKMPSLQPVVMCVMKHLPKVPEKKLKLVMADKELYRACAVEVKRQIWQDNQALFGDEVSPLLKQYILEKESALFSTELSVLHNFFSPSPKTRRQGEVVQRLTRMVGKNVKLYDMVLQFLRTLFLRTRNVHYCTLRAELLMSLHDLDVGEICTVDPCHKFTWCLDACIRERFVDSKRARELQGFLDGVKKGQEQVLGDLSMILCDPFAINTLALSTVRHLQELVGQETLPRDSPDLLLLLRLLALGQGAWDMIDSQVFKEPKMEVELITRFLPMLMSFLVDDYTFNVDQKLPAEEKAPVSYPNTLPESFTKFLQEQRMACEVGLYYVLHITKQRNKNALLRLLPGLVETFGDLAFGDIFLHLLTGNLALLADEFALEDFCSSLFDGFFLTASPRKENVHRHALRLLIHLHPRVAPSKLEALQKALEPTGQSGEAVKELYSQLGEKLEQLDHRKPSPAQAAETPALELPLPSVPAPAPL
Sequence (Q8IXH7 10-590, chain 3 of 3): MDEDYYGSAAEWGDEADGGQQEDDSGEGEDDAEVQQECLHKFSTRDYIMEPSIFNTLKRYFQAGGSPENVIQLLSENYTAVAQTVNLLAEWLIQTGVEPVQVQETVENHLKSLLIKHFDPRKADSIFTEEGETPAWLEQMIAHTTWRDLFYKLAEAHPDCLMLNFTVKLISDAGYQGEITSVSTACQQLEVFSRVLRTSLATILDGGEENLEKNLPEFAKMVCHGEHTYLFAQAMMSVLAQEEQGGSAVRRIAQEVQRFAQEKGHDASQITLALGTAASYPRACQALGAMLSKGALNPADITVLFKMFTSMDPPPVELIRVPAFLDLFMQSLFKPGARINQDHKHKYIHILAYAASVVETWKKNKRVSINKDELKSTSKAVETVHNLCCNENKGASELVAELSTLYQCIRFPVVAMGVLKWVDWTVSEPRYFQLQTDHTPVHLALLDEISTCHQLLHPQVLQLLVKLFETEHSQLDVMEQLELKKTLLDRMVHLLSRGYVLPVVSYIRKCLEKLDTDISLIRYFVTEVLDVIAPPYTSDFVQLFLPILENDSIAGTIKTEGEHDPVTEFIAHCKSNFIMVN
protocol: fluorescence anisotropy; yeast tRNA 5 ug/ml; NELF-AC: 30 mM NaCl, 3 mM MgCl2, 10 mM Na-HEPES pH 7.4, 2 mM DTT, 50 ug/ml BSA; other NELF complexes: same with 60 mM NaCl and 5 ug/ml yeast tRNA; 10 nM nucleic acid, incubated at RT, read at 30 C
recorded-conditions: protein: recombinant;recombinant;recombinant; tags: none stated;N-His6-TEV in NELF-B and NELF-BE constructs (cleaved);N-His6-TEV, cleaved; copies: 1;1;1; label: 5'-FAM; single strand
reported-metric: pKd
Scale explanation: pKd corresponds to minus log10 of a concentration expressed in moles per litre.

{"columns": ["binder", "pKd"],
 "data": [
  ["AAGGGGAGCGGGGGAGGAUAAUAGG (ssRNA) [60% GC ssRNA]", 7.13]
]}

# input for lookup
Could you please provide reported pKd for AAGGGGAGCGGGGGAGGATAATAGG (ssDNA) [60% GC ssDNA] ? Thanks!
7.00
